- System tested: mushroom TYR (Agaricus bisporus)
- Sequence (C7FF04 2-392): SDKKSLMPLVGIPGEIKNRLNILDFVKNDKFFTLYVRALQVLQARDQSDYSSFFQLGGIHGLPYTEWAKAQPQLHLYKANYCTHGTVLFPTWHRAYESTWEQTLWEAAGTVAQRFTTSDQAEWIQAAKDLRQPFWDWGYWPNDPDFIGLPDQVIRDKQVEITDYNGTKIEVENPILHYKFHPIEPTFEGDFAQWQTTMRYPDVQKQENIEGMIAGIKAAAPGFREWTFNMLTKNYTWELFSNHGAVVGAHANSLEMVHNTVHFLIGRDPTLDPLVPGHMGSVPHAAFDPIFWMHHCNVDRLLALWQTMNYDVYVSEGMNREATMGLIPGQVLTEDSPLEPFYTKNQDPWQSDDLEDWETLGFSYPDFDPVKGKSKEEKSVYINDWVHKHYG
- Protocol: Mushroom TYR activity assay with and without CuSO4
- Assay type: biochemical
- Experimental parameters: 20 μM derivative; L-tyrosine; no CuSO4 added externally; read-out: inhibition of mushroom TYR activity without CuSO4
# inhibition at 20 µM per record follows

// below: answered compounds
[[record]]
compound = "Cc1cccc2[nH]c(CS)nc12"
system_tested = "mushroom TYR (Agaricus bisporus)"
value_measured = "86 to 89%"

[[record]]
compound = "COc1ccc2[nH]c(CS)nc2c1"
system_tested = "mushroom TYR (Agaricus bisporus)"
value_measured = "86 to 89%"

[[record]]
compound = "Cc1ccc2[nH]c(CS)nc2c1"
system_tested = "mushroom TYR (Agaricus bisporus)"
value_measured = "86 to 89%"


Lab note: `Cc1cc2nc(CS)[nH]c2cc1C` gave inhibition at 20 µM of 60%

Lab note: SCc1nc2ccccc2[nH]1 [Derivative 1, (1H-Benzo[d]imidazol-2-yl)methanethiol] gave inhibition at 20 µM of 86 to 89%

###

- System tested: mushroom TYR (Agaricus bisporus)
- Protocol: Kinetic studies on mushroom TYR (Lineweaver–Burk and Dixon plots)
- Assay type: biochemical
- Experimental parameters: L-dopa as substrate
- Description: Kinetic experiments were performed to obtain Lineweaver–Burk plots for the analysis of mushroom TYR kinetics. Mushroom TYR solution (20 μL, 150 units/mL) was added to each well of a 96-well microplate containing 2-MMBI derivatives (10 μL; 0, 7.5, 15, and 30 μM for 1; 0, 5, 10, and 20 μM for 3 and 8; and 0, 12.5, 25, and 50 μM for 9) and a substrate solution (170 μL) composed of sodium phosphate buffer (17.2 mM; pH 6.5) and L-dopa (various concentrations: 0.5, 1, 2, 4, 8, and 16 mM). […]
Measure name: inhibition mechanism

[[record]]
chemical_string = "Cc1cccc2[nH]c(CS)nc12"
measure_name = "inhibition mechanism"
value_measured = "mixed TYR inhibitors"

[[record]]
chemical_string = "Cc1ccc2[nH]c(CS)nc2c1"
measure_name = "inhibition mechanism"
value_measured = "mixed TYR inhibitors"


###

- System tested: mushroom TYR (Agaricus bisporus)
- Protocol: Mushroom TYR activity assay with and without CuSO4
- Type: biochemical
- Experimental parameters: 20 μM derivative; L-tyrosine; CuSO4 50 μM added externally; read-out: inhibition of mushroom TYR activity with CuSO4
Measure name: inhibition at 20 µM
Your answer should be a number followed by the unit of measure.

// below: answered compounds
[[record]]
compound = "Cc1cccc2[nH]c(CS)nc12"
value_measured = "54%"

[[record]]
compound = "SCc1nc2ccccc2[nH]1 [Derivative 1, (1H-Benzo[d]imidazol-2-yl)methanethiol]"
value_measured = "76%"


Lab note: `Cc1ccc2[nH]c(CS)nc2c1` gave inhibition at 20 µM of 63%

Lab note: `COc1ccc2[nH]c(CS)nc2c1` gave inhibition at 20 µM of 34%

Lab note: `Cc1cc2nc(CS)[nH]c2cc1C` gave inhibition at 20 µM of 1%
